Assignment: determine reported MCC at 72 h for the given compounds.
Measurement Protocol: Cytotoxicity against human A549 cells assessed as cell viability after 72 hrs by resazurin staining-based fluorimetric analysis
Setup Conditions: read-out: MIC

Using known records, supply MCC at 72 h for COc1ncnc(Cn2cc(C(=O)NCCF)c3ncc(C)cc32)c1C
> 100 µM

Using known records, supply MCC at 72 h for COc1ncnc(Cn2cc(C(=O)NCCF)c3ncccc32)c1C
> 100 µM

Using known records, supply MCC at 72 h for COc1ncnc(Cn2cc(C(=O)NCCO)c3ncc(C)cc32)c1C
> 100 µM

Using known records, supply MCC at 72 h for Cc1ccccc1Cn1cc(C(=O)NCC2CC2)c2ncccc21
94 µM

Using known records, supply MCC at 72 h for COc1ncnc(Cn2cc(C(=O)NCC3CC3)c3ncccc32)c1C
> 100 µM

---

Measurement Protocol: AUC in BALB/C mouse infected with Mycobacterium tuberculosis H37Rv ATCC 27294 at 50 to 200 mg/kg, po qd administered for 24 days by LC-MS/MS analysis
Format: ADME, organism-based
Design: dose 50-200 mg/kg, route oral
Setup Conditions: plasma
Metric Name: AUC at 576 h (µM·h)
Lab book: enter the figure in µM·h, no units written.

Using known records, supply AUC at 576 h for COc1ncnc(Cn2cc(C(=O)NCCF)c3ncccc32)c1C
200

Using known records, supply AUC at 576 h for COc1ncnc(Cn2cc(C(=O)NCC3CC3)c3ncccc32)c1C
200

---

Measurement Protocol: Inhibition of Mycobacterium smegmatis thioredoxin 6xHis-tagged decaprenylphosphoryl-beta-D-ribose2'-epimerase1 overexpressed in Escherichia coli rossetta cells using farnesyl-phosphoryl-beta-D-ribofuranose as substrate
Design: species or system Mycolicibacterium smegmatis
Assignment: determine reported pIC50 for the given molecules.
pIC50 is a log-scale quantity: -log10 of the concentration expressed in molar.

Using known records, supply pIC50 for COc1cccc(F)c1Cn1cc(C(=O)NCC2CC2)c2ncccc21
8.22

Using known records, supply pIC50 for Cc1ccc(Cn2cc(C(=O)NCCc3ccncc3)c3ncccc32)c(C)c1
5.26

Using known records, supply pIC50 for COc1ncnc(Cn2cc(C(=O)NC[C@H](C)F)c3ncc(C)cc32)c1C
7.85

Using known records, supply pIC50 for COc1ncnc(Cn2cc(C(=O)NCCF)c3ncc(C)cc32)c1C
8.52

Using known records, supply pIC50 for Cc1ccc(Cn2cc(C(=O)NCC3CCC(F)(F)CC3)c3ncccc32)c(C)c1
5.10

Using known records, supply pIC50 for Cc1cnc2c(C(=O)NCCF)cn(Cc3ncnc(N(C)C)c3C)c2c1
7.43

Using known records, supply pIC50 for COCCNC(=O)c1cn(Cc2cc(F)cnc2OC)c2cccnc12
8.40

Using known records, supply pIC50 for Cc1cccnc1Cn1cc(C(=O)NCC2CC2)c2ncccc21
7.08

---

Test system: Mycobacterium tuberculosis
Measurement Protocol: Bactericidal activity against hypoxia induced nonreplicating persistent Mycobacterium tuberculosis H37Rv after 7 days
Type: functional
Setup Conditions: 168 h
Metric Name: MBC (µM)
Lab book: enter the figure in µM, no units written.

Using known records, supply MBC for COc1ncnc(Cn2cc(C(=O)NCCF)c3ncc(C)cc32)c1C
100

Using known records, supply MBC for COc1ncnc(Cn2cc(C(=O)NCCF)c3ncccc32)c1C
50

---

Target Entity: Voltage-gated inwardly rectifying potassium channel KCNH2 (Homo sapiens, UniProt Q12809)
Sequence (Q12809 whole entry): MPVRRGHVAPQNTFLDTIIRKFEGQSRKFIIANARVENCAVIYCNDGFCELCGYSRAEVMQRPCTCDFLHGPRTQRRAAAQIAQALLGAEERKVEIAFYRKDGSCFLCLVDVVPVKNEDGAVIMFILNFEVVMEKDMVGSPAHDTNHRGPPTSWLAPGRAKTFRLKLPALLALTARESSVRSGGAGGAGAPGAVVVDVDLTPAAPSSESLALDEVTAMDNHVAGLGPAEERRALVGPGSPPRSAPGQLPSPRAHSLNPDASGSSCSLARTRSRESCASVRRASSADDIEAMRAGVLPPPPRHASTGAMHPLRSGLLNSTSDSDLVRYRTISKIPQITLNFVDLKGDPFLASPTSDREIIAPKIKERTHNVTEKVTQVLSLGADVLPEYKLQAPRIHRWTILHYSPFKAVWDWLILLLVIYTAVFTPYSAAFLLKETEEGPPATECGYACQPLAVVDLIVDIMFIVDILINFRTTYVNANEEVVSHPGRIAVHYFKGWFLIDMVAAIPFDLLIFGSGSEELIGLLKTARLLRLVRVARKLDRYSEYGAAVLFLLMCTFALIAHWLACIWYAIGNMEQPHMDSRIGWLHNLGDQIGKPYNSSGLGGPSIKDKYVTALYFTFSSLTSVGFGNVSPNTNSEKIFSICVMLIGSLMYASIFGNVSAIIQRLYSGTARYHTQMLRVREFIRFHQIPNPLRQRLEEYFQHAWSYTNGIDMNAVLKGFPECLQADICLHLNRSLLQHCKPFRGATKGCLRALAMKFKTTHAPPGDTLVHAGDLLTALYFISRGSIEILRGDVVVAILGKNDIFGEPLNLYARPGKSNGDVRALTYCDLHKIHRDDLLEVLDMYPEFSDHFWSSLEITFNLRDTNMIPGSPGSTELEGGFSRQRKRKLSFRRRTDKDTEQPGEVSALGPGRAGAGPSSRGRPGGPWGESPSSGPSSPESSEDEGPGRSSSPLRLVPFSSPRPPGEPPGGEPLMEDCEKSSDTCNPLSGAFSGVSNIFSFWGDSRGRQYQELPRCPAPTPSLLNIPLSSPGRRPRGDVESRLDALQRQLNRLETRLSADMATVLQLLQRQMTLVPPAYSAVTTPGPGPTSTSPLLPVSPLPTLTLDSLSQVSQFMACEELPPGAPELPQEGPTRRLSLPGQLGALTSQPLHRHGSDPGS
Measurement Protocol: Inhibition of human ERG
Metric Name: INH

Using known records, supply INH for COc1ncnc(Cn2cc(C(=O)NCCF)c3ncc(C)cc32)c1C
> 33 µM

Using known records, supply INH for Cc1ccccc1Cn1cc(C(=O)NCC2CC2)c2ncccc21
28 µM

Using known records, supply INH for COc1ncnc(Cn2cc(C(=O)NCCF)c3ncccc32)c1C
> 33 µM

Using known records, supply INH for COc1ncnc(Cn2cc(C(=O)NCCO)c3ncc(C)cc32)c1C
> 33 µM

Using known records, supply INH for COc1ncnc(Cn2cc(C(=O)NCC3CC3)c3ncccc32)c1C
> 33 µM

---

Measurement Protocol: Inhibition of Mycobacterium smegmatis thioredoxin 6xHis-tagged decaprenylphosphoryl-beta-D-ribose2'-epimerase1 overexpressed in Escherichia coli rossetta cells using farnesyl-phosphoryl-beta-D-ribofuranose as substrate
Parameters: species or system Mycolicibacterium smegmatis
hey, just use Criterion met if measured IC50 is less than 10 nM, otherwise Criterion not met

IC50 under 10 nM? Item: COc1ncnc(Cn2cc(C(=O)NCCO)c3ncccc32)c1C
Criterion not met

IC50 under 10 nM? Item: COc1ccc(Cn2cc(C(=O)NCC3CC3)c3ncccc32)cc1
Criterion met

IC50 under 10 nM? Item: Cc1c(Cn2cc(C(=O)NCCF)c3ncccc32)ncnc1N(C)C
Criterion not met

IC50 under 10 nM? Item: COc1ccc(Cn2cc(C(=O)NCC3CC3)c3cnccc32)cc1
Criterion not met

IC50 under 10 nM? Item: O=C(NCC1CC1)c1cn(CC2CCOCC2)c2cccnc12
Criterion not met

IC50 under 10 nM? Item: Cc1ccc(Cn2cc(C(=O)NCC3CC3)c3ncccc32)cc1
Criterion not met

---

Measurement Protocol: Inhibition of Mycobacterium smegmatis thioredoxin 6xHis-tagged decaprenylphosphoryl-beta-D-ribose2'-epimerase1 C394G mutant overexpressed in Escherichia coli rossetta cells using farnesyl-phosphoryl-beta-D-ribofuranose as substrate
Design: species or system Mycolicibacterium smegmatis
Metric Name: pIC50
pIC50 is a log-scale quantity: -log10 of the concentration expressed in molar.

Using known records, supply pIC50 for COc1ncnc(Cn2cc(C(=O)NCCO)c3ncc(C)cc32)c1C [TBA-7371]
8.00

Using known records, supply pIC50 for COc1ncnc(Cn2cc(C(=O)NCCF)c3ncccc32)c1C
7.82

Using known records, supply pIC50 for COc1ncnc(Cn2cc(C(=O)NCCF)c3ncc(C)cc32)c1C
8.15

---

Assignment: determine reported pIC50 for the given compounds.
Measurement Protocol: Inhibition of Mycobacterium smegmatis thioredoxin 6xHis-tagged decaprenylphosphoryl-beta-D-ribose2'-epimerase1 overexpressed in Escherichia coli rossetta cells using farnesyl-phosphoryl-beta-D-ribofuranose as substrate
Set-up: species or system Mycolicibacterium smegmatis
pIC50: −log10 of the molar value.

Using known records, supply pIC50 for Cc1ccccc1Cn1cc(C(=O)NCCN2CCCCC2)c2ncccc21
< 5.00

Using known records, supply pIC50 for CCc1nc2cc(Cl)ccn2c1C(=O)NCc1ccc(N2CCN(c3ccc(F)cc3)CC2)cc1
< 5.00

Using known records, supply pIC50 for COc1ccc(Cn2cc(C(=O)N(C)CC3CC3)c3ncccc32)cc1
< 5.00

---

Measurement Protocol: Inhibition of Mycobacterium smegmatis thioredoxin 6xHis-tagged decaprenylphosphoryl-beta-D-ribose2'-epimerase1 overexpressed in Escherichia coli rossetta cells using farnesyl-phosphoryl-beta-D-ribofuranose as substrate
Set-up: species or system Mycolicibacterium smegmatis
Assignment: determine reported pIC50 for the given molecules.
pIC50 is a log-scale quantity: -log10 of the concentration expressed in molar.

Using known records, supply pIC50 for COc1ncnc(Cn2cc(C(=O)NCCO)c3ncc(C)cc32)c1C [TBA-7371]
8.00

Using known records, supply pIC50 for COc1ncnc(Cn2cc(C(=O)NCCF)c3ncccc32)c1C
8.00

Using known records, supply pIC50 for Cc1ccc(Cn2cc(C(=O)NCCF)c3ncccc32)c(C)c1
8.00
